experiment: State of the zwitterions at 25° C.; format: physicochemical; settings: room temperature (25° C.)
measured-quantity: State at 25° C.

- molecule: "C[n+]1ccn(CCOCCOCCOCCC(=O)[O-])c1"
  measured-quantity: "State at 25° C."
  measured-result: "liquid"
- molecule: "C[n+]1ccn(CCOP(=O)([O-])O)c1"
  measured-quantity: "State at 25° C."
  measured-result: "liquid"
- molecule: "COCCOCC[n+]1ccn(CCOCCOCCOCCC(=O)[O-])c1"
  measured-quantity: "State at 25° C."
  measured-result: "liquid"
- molecule: "COCCOCCn1cc[n+](CCCC(=O)[O-])c1 [OE2imC3C, reference compound]"
  measured-quantity: "State at 25° C."
  measured-result: "solid"
